Just for reference, patent US20110275635A1 is where these values come from.

Biological target: UniProtKB Q81RP3
Type: biochemical
Details: read-out: NADs IC50
quantity name: pIC50
Please express pIC50 as -log10 of the molar concentration.

Prompt: What value of pIC50 has been recorded for this entry: Cc1c(NC(=O)c2ccc(N3CCCC3)c([N+](=O)[O-])c2)cccc1-c1nc2ccccc2[nH]1
Response: 3.71

Prompt: Could you tell me which pIC50 is on file for O=C(CCC(=O)Nc1ccc(Nc2ccccc2)cc1)Nc1ccc(Nc2ccccc2)cc1 ?
Response: 3.59

Prompt: What measured pIC50 goes with Cc1cc(C)c2oc(-c3cccc(NC(=O)/C=C/c4cccc([N+](=O)[O-])c4)c3)nc2c1 ?
Response: 4.17

Prompt: Record request: pIC50 value, item O=C(COC(=O)c1ccc(NC(=O)c2ccc([N+](=O)[O-])cc2)cc1)c1ccc(F)cc1
Response: 3.75

Prompt: Sample O=[N+]([O-])c1ccc(O)c(/C=N/c2cccc(O)c2)c1 — what was its pIC50?
Response: 4.65

Prompt: Find the recorded pIC50 belonging to COc1ccc(Oc2ccc([N+](=O)[O-])cc2C(=O)Nc2ccc(S(N)(=O)=O)cc2)cc1 and report it.
Response: 3.54

Prompt: Would you mind telling me what pIC50 value was observed for O=C(Nc1cccc(Oc2ccc3c(c2)C(=O)N(c2ccccc2)C3=O)c1)c1cccc([N+](=O)[O-])c1 ?
Response: 3.69

---

Parameter: IC50. Scope: all listed entries.
Molecular target: B. anthracis NADs (Bacillus anthracis)
Type: biochemical
Conditions: read-out: IC50

# structure notation, IC50
records = [
    ("COc1ccccc1NC(=O)COc1ccc(/C=C(/C#N)c2nc3ccccc3[nH]2)cc1", "107 µM"),
    ("O=[N+]([O-])c1ccc(-c2cnc(N/N=C/c3cccc([N+](=O)[O-])c3)nc2)cc1", "160 µM"),
    ("Cc1cc(-c2nnc(CSc3nnc(NC(=O)c4ccc(F)c(Cl)c4)s3)o2)ccc1[N+](=O)[O-]", "271 µM"),
]

Prompt: Return reported IC50; argument: Cc1ccc(-c2nc3cc(Cl)ccc3o2)cc1CC(=O)c1cc([N+](=O)[O-])c(C)c([N+](=O)[O-])c1
Response: 78.5 µM

Prompt: What does the data say about its IC50? Entry: O=C(Nc1ccc(Cc2ccc(NC(=O)c3ccc4c(c3)OCO4)cc2)cc1)c1ccc2c(c1)OCO2
Response: 65.7 µM

Prompt: Can you share its IC50? I mean this compound: O=C(Nc1cccc(/N=C/c2cc([N+](=O)[O-])ccc2O)c1)c1cccc(Br)c1
Response: 99.5 µM

Prompt: I am curious: what IC50 value has been reported for COc1ccc(CCNC(=O)NCc2cccc(CNC(=O)NCCc3ccc(OC)cc3)c2)cc1 ?
Response: 70 µM

---

Target: B. anthracis NADs (Bacillus anthracis)
Format: biochemical
Details: read-out: IC50
IC50: recorded values

# structure notation, IC50
data = [
    ("Nc1c(C(=O)c2ccc([N+](=O)[O-])cc2)sc(Nc2ccccc2)c1-c1nc2ccccc2[nH]1", "170 µM"),
]

Prompt: Give its IC50 value. Item: O=C(Nc1cccc(Oc2ccc3c(c2)C(=O)N(c2ccccc2)C3=O)c1)c1cccc([N+](=O)[O-])c1
Response: 175 µM

Prompt: Requested read-out: IC50. Entry: COc1ccc(NC(=O)Nc2cccc(NC(=O)Nc3ccc(OC)cc3)c2F)cc1
Response: 253 µM

Prompt: Item Cc1c(NC(=O)c2ccc(N3CCCC3)c([N+](=O)[O-])c2)cccc1-c1nc2ccccc2[nH]1 has what recorded IC50?
Response: 198 µM

---

Biological target: B. anthracis NADs (Bacillus anthracis, UniProt Q81RP3)
Sequence (Q81RP3 whole entry, looked up): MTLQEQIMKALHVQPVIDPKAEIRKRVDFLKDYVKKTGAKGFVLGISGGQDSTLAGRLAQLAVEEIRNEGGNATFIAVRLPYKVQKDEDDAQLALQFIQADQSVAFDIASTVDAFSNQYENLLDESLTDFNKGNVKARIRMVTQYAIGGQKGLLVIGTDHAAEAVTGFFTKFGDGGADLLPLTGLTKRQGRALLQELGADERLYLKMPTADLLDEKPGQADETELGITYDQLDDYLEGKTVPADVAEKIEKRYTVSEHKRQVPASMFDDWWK
Type: biochemical
Conditions: read-out: NADs IC50
Mark each entry Condition met if its IC50 sits below 100 µM, and Condition not met for all others.

Check out these entries, answers already filled in.
# molecule, label class
measured = [
    ("O=[N+]([O-])c1ccc(-c2cnc(N/N=C/c3cccc([N+](=O)[O-])c3)nc2)cc1 [Compound 5591]", "Condition not met"),
    ("N/C(=N\\OC(=O)c1ccc(Cl)c(Cl)c1)c1cccc(CSc2ccccn2)c1 [Compound 5775]", "Condition not met"),
]

Prompt: Report whether reported IC50 is lower than 100 µM (strictly) for Nc1ncnc(Nc2ccc(Cl)cc2C(=O)c2ccccc2Cl)c1[N+](=O)[O-] [Compound 5616]
Response: Condition not met

Prompt: Field: below-cutoff. Rule: recorded IC50 strictly less than 100 µM. Subject: O=C(Cn1cc(/C=C/c2[nH]c(=O)[nH]c(=O)c2[N+](=O)[O-])c2ccccc21)Nc1ccc(F)cc1 [Compound 5615]
Response: Condition met

Prompt: Would you kindly verify if IC50 of NC(=O)c1ccc(NC(=O)c2ccc(Oc3ccc([N+](=O)[O-])cc3Cl)cc2)cc1 [Compound 5821] is strictly less than 100 µM?
Response: Condition not met

---

List of IC50 values.
System: IMR90
Assay: In vitro inhibition of normal human cells
Assay type: cell-based
Details: IMR-90
Write the number in µM without appending the unit.

# structure notation, experimental target, numeric readout
rows = [
    ("O=C(Nc1ccc(S(=O)(=O)Nc2ccc(Cl)c(Cl)c2)cc1)Nc1ccccc1O", "IMR90", 181),
]

We now examine a further molecule.
Prompt: For O=[N+]([O-])c1cc(S(=O)(=O)NCc2ccco2)ccc1NNC(=S)Nc1cccc(C(F)(F)F)c1 , what is its reported IC50?
Response: 148

---

Target: B. anthracis NADs (Bacillus anthracis, UniProt Q81RP3)
Type: biochemical
Details: read-out: IC50
quantity name: log10 IC50 (log10 of the value in µM)
Recorded IC50 (log10, µM)

Answered cases to consult:
# compound, log10 IC50
data = [
    ("Cc1cc(C)c2oc(-c3cccc(NC(=O)/C=C/c4cccc([N+](=O)[O-])c4)c3)nc2c1 [Compound 5806]", 1.83),
    ("O=C(Nc1ccccc1)Nc1ccc(NC(=O)c2ccc(NC(=O)Nc3ccccc3)cc2)cc1 [Compound 5793]", 1.90),
    ("O=C(Nc1ccc([N+](=O)[O-])cc1)c1ccc(-c2nnc(-c3ccccc3)o2)cc1 [Compound 5605]", 2.16),
    ("Cc1ccc(C(=O)Nc2cccc(-c3nc4ccccc4[nH]3)c2)cc1 [Compound 5710]", 2.11),
    ("O=C(Nc1ccc([N+](=O)[O-])cc1)Nc1ccc(S(=O)(=O)Nc2ccc(Cl)c(Cl)c2)cc1 [Compound 5824]", 1.00),
]

Prompt: Item O=C(CCC(=O)Nc1ccc(Nc2ccccc2)cc1)Nc1ccc(Nc2ccccc2)cc1 [Compound 5604] has what recorded log10 IC50?
Response: 2.15

Prompt: Reported log10 IC50 for NC(=O)c1ccc(/N=C/c2cc([N+](=O)[O-])ccc2Cl)cc1 [Compound 5679] : what is it?
Response: 2.42

Prompt: Returns the measured log10 IC50 for the input compound. Input: COc1ccc(Oc2ccc([N+](=O)[O-])cc2C(=O)Nc2ccc(S(N)(=O)=O)cc2)cc1 [Compound 5724]
Response: 2.46

---

Tested on: HEK293
Assay: In vitro inhibition of normal human cells
Type: cell-based
quantity name: IC50 (µM)
I only need the number, in µM, no unit after it.

# compound, experimental target, quantity name, measurement units, numeric readout
data = [
    ("O=[N+]([O-])c1cc(S(=O)(=O)NCc2ccco2)ccc1NNC(=S)Nc1cccc(C(F)(F)F)c1 [Compound 6034]", "HEK293", "IC50", "µM", 176),
]

Turning now to a further record.
Prompt: For O=C(Nc1ccc(S(=O)(=O)Nc2ccc(Cl)c(Cl)c2)cc1)Nc1ccccc1O [Compound 6399] , what is its reported IC50?
Response: 163

---

This section presents compounds with their documented IC50 values.
Target: B. anthracis NADs (Bacillus anthracis)
Type: biochemical
Settings: read-out: NADs IC50
A number alone suffices; assume µM.

Worked examples follow.
# compound, measurement units, IC50
measured = [
    ("Cc1ccc(-c2nc3cc(Cl)ccc3o2)cc1CC(=O)c1cc([N+](=O)[O-])c(C)c([N+](=O)[O-])c1 [Compound 5588]", "µM", 84),
    ("Cc1ccc(C(=O)Nc2cccc(-c3nc4ccccc4[nH]3)c2)cc1 [Compound 5710]", "µM", 189),
]

Prompt: What does the data say about its IC50? Entry: Nc1c(C(=O)c2ccc([N+](=O)[O-])cc2)sc(Nc2ccccc2)c1-c1nc2ccccc2[nH]1 [Compound 5768]
Response: 170

Prompt: For the compound shown here, O=C(Nc1ccc2oc(-c3cc(Br)ccc3Cl)nc2c1)c1cccc([N+](=O)[O-])c1 [Compound 5798] , give the reported IC50.
Response: 61.8

---

Below, each entry is listed with its recorded MIC.
Tested on: Bacillus anthracis Sterne
Test: microbe, parasite or virus in culture
Type: cell-based
Conditions: Bacillus anthracis, 5 h, read-out: MIC100 (μM)

# example entries with known answers
# structure notation, MIC
measured = [
    ("O=C(Nc1ccc2oc(-c3cc(Br)ccc3Cl)nc2c1)c1cccc([N+](=O)[O-])c1", "> 240 µM"),
    ("O=C(Nc1ccc([N+](=O)[O-])cc1)c1ccc(-c2nnc(-c3ccccc3)o2)cc1", "> 259 µM"),
    ("O=C(Nc1ccc(Cc2ccc(NC(=O)c3ccc4c(c3)OCO4)cc2)cc1)c1ccc2c(c1)OCO2", "> 240 µM"),
    ("Cc1ccc(-c2nc3cc(Cl)ccc3o2)cc1CC(=O)c1cc([N+](=O)[O-])c(C)c([N+](=O)[O-])c1", "> 215 µM"),
    ("O=C(Cn1cc(/C=C/c2[nH]c(=O)[nH]c(=O)c2[N+](=O)[O-])c2ccccc21)Nc1ccc(F)cc1", "> 223 µM"),
]

Switching to the query record.
Prompt: Any idea what MIC was measured for CCc1ccc(S(=O)(=O)Nc2c([N+](=O)[O-])ccc3ccccc23)cc1 ?
Response: 3.75 µM
